Target: Tyrosine-protein kinase BTK (Homo sapiens);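 note: values are mean percent inhibition of BTK across replicate measurements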
Details: at 1 µM
// inhibition lookup, one value per entry
Answer in %, number only, no unit symbol.

[
  {
    "compound": "COc1ccc(-c2cc3c(N)ncnc3o2)cc1",
    "endpoint-name": "inhibition",
    "measured-value": -0.38
  },
  {
    "compound": "N#Cc1c(NC(=O)CN2CCOCC2)sc2c1CCCC2",
    "endpoint-name": "inhibition",
    "measured-value": 3.11
  },
  {
    "compound": "CCCN(CCS(C)(=O)=O)Cc1ccc(-c2ccc3ncnc(Nc4ccc(OCc5cccc(F)c5)c(Cl)c4)c3c2)o1",
    "endpoint-name": "inhibition",
    "measured-value": 0.03
  },
  {
    "compound": "O=C(Nc1n[nH]c2cc(-c3ccc(F)cc3)ccc12)C1CC1",
    "endpoint-name": "inhibition",
    "measured-value": -0.88
  },
  {
    "compound": "COc1cccc(-c2c[nH]c3c(N/N=C/c4ccncc4)ncnc23)c1",
    "endpoint-name": "inhibition",
    "measured-value": 2.48
  },
  {
    "compound": "Fc1ccc(-c2nn3ccccc3c2-c2ccncc2)cc1",
    "endpoint-name": "inhibition",
    "measured-value": -1.29
  },
  {
    "compound": "Nc1nc(-c2ccc(F)cc2)c(-c2ccc3ncccc3n2)s1",
    "endpoint-name": "inhibition",
    "measured-value": 0.99
  },
  {
    "compound": "COc1cc(N2CCN(C(C)C)CC2)ccc1Nc1nc(Nc2ccc(F)cc2C(N)=O)c2cc[nH]c2n1",
    "endpoint-name": "inhibition",
    "measured-value": -0.07
  }
]

stdin: Fill in the blank: the reported inhibition of "COC(=O)Nc1nc2ccc(Oc3ccc(NC(=O)Nc4cccc(Cl)c4)cc3)cc2[nH]1" is ____.
stdout: -0.37

stdin: One more compound: "CN1CCC(n2cnc(-c3ccc(F)cc3)c2-c2ccnc(Nc3ccccc3)n2)CC1"
stdout: 1.25

stdin: One more compound: "CCn1c(-c2nonc2N)nc2c(C#CC(C)(C)O)ncc(OC3CCNCC3)c21"
stdout: 0.56

stdin: One more compound: "CC(=O)NCc1cccc(C#Cc2cncnc2Nc2ccc(OCc3cccc(F)c3)c(Cl)c2)c1"
stdout: -0.78

###

// inhibition lookup, one value per entry
Biological target: Non-receptor tyrosine-protein kinase TNK1 (Homo sapiens);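 note: reported values are mean inhibition figures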
Conditions: at 0.1 µM
Answer in %, number only, no unit symbol.

[
  {
    "structure": "CCCN(CCS(C)(=O)=O)Cc1ccc(-c2ccc3ncnc(Nc4ccc(OCc5cccc(F)c5)c(Cl)c4)c3c2)o1",
    "inhibition [%]": 1.24
  },
  {
    "structure": "Cc1cccc2c1NC(=O)/C2=N\\Nc1ccc(S(N)(=O)=O)cc1",
    "inhibition [%]": 2.15
  },
  {
    "structure": "CCn1c(-c2nonc2N)nc2c(C#CC(C)(C)O)ncc(OC3CCNCC3)c21",
    "inhibition [%]": 1.33
  },
  {
    "structure": "Clc1ccc(-c2nn3ncccc3c2-c2ccnc(Nc3ccccc3)n2)cc1",
    "inhibition [%]": -6.06
  },
  {
    "structure": "FC(F)(F)c1cccc(-c2nn3ncccc3c2-c2ccnc(Nc3ccc4c(c3)OCCO4)n2)c1",
    "inhibition [%]": 1.44
  }
]

stdin: Fill in the blank: the reported inhibition of "CCc1nn2ncccc2c1-c1ccnc(NC2CC2)n1" is ____.
stdout: 1.41

stdin: One more molecule: "COc1ccc(CNC(=O)c2ccc(-c3cc(-c4nnc(C)o4)ccc3C)cc2)cc1"
stdout: 6.31

stdin: One more molecule: "Nc1nc(-c2cccc(Cl)c2)c(-c2ccc3ncccc3n2)s1"
stdout: 3.08

stdin: One more molecule: "O=S(=O)(CCNCc1ccc(-c2ccc3ncnc(Nc4ccc(OCc5cccc(F)c5)c(Cl)c4)c3c2)o1)c1ccccc1"
stdout: 4.16

stdin: One more molecule: "Fc1cccc(COc2ccc(Nc3ncnc4sc(-c5ccco5)cc34)cc2Cl)c1"
stdout: 1.8

From: ChEMBL document CHEMBL1961873
